Target: human TAS2R14 (Homo sapiens)
Construct: expressed in transfected cells; host or cells: HEK293T-Gα16gust44
Sequence (Q9NYV8 1-317): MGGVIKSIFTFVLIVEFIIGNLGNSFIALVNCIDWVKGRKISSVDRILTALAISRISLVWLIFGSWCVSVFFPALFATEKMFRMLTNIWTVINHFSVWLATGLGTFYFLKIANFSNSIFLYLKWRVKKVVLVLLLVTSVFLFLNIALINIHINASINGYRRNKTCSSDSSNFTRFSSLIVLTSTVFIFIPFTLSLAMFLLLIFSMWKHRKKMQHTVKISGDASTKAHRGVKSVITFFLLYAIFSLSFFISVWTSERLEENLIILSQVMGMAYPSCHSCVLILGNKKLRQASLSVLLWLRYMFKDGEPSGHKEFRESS
Experiment: Calcium imaging assay (FLIPR), HEK293T-Gα16gust44 cells transfected with human TAS2R14
Format: cell-based
Conditions: TAS2R14 trace; Time (s) 305.578 (Taurocholic Acid 305.563, Chenodeoxycholic Acid 305.546)
log10 of RLU reference
quantity-kind: log10 of RLU (log10 of the value in RLU)

smiles-record	quantity-kind	observed-value
C[C@H](CCC(=O)O)[C@H]1CC[C@H]2[C@@H]3[C@H](O)C[C@@H]4C[C@H](O)CC[C@]4(C)[C@H]3CC[C@]12C	log10 of RLU	2.32
C[C@H](CCC(=O)NCC(=O)O)[C@H]1CC[C@H]2[C@@H]3[C@H](O)C[C@@H]4C[C@H](O)CC[C@]4(C)[C@H]3C[C@H](O)[C@]12C	log10 of RLU	2.38
C[C@H](CCC(=O)NCCS(=O)(=O)O)[C@H]1CC[C@H]2[C@@H]3CC[C@@H]4C[C@H](O)CC[C@]4(C)[C@H]3CC[C@]12C	log10 of RLU	1.04
C[C@H](CCC(=O)NCCS(=O)(=O)O)[C@H]1CC[C@H]2[C@@H]3[C@H](O)C[C@@H]4C[C@H](O)CC[C@]4(C)[C@H]3C[C@H](O)[C@]12C	log10 of RLU	2.00
C[C@H](CCC(=O)O)[C@H]1CC[C@H]2[C@@H]3[C@H](O)C[C@@H]4C[C@H](O)CC[C@]4(C)[C@H]3C[C@H](O)[C@]12C	log10 of RLU	2.26
